# test-summary: Induction of LAT1-mediated polyamine efflux in human L3.6PL cells assessed as reduction in cell viability after 48 hrs by MTS assay
measured-attribute: pIC50
Lab note: report pIC50 as minus log10 of the concentration in molar units, number only.

Entry "CC(C)CCN1CCN([C@@H](CNCc2ccccc2)CC2CCCCC2)C[C@@H]1CC(C)C" : reported pIC50 = ?
5.46
